Experiment: in vitro
Details: human, HEK293 cells
observed-property: IC50 at 72 h (µM)
One number for each entry, in µM.

**Query** Endpoint output: IC50 at 72 h of COc1cc2nc(NCCNC(=O)CCCCC(=O)NO)nc(NC3CCN(Cc4ccccc4)CC3)c2cc1OC . Value?
**Result** 19.9

The origin of these recorded values is ChEMBL document CHEMBL5512604.
